experimentalTarget: KDR (human, UniProt P35968 20-1356)
Sequence (P35968 20-1356): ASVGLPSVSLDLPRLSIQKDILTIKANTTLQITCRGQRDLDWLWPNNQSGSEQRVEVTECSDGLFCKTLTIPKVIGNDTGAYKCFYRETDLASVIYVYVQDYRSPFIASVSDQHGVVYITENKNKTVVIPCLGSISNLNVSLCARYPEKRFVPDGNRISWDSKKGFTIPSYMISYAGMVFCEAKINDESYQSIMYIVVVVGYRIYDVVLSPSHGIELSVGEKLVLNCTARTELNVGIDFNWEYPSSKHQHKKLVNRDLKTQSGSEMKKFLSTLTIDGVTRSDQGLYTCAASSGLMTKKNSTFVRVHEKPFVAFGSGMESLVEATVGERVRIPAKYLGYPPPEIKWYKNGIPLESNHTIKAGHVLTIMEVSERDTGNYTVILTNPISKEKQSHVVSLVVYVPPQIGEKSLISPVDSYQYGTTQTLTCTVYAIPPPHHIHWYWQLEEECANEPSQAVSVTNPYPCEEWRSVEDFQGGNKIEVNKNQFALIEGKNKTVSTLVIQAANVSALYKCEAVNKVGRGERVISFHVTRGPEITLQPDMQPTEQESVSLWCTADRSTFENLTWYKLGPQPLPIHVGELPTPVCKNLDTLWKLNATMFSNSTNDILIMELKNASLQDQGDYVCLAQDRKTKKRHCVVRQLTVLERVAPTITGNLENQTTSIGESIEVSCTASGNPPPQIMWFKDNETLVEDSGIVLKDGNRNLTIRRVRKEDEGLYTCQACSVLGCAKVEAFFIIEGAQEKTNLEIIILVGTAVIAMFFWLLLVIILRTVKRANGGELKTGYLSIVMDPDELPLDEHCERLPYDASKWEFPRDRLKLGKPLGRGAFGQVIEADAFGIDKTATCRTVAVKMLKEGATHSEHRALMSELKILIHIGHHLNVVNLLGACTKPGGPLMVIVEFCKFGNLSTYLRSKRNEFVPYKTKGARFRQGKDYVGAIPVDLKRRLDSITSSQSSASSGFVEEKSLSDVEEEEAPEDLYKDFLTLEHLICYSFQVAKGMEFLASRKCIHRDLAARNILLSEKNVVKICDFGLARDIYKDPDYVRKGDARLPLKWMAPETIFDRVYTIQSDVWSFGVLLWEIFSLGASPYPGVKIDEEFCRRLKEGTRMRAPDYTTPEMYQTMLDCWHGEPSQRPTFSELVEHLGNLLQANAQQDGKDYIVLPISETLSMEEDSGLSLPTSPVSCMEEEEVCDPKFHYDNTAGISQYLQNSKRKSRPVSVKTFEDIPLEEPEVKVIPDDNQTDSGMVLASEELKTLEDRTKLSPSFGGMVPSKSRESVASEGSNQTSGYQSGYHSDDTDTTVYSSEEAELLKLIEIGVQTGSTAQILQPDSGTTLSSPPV
assayComment: cell-based or functional assay
Each entry below lists one item and its recorded Activity at 133 nM (% Inhibition), 24-hour Pre-incubation at 37° C., N = 2 value.
// return numeric value only (unit: %, not printed)

27A3 (antibody, V domains shown) VH: QLQLQESGPGLVKPSETLSLTCTVSGGSISSRSDYWGWIRQPPGKGLEWIGTIYYSGDTYYNPSLKSRVTISVDTSKNQFSLKLSSVTAADTAVYYCARQQLVLYYFDYWGQGTLVTVSS VL: EIVLTQSPGTLSLSPGERATLSCRASQSVSSSYLAWYQQKPGQAPRLLIYATSNRATGIPDRFSGSGSGTDFTLTISRLEPEDFAVYYCQQHGSSPPLTFGGGTKVEIK ... 0
21H6 (antibody, V domains shown) VH: QVQLVESGGGLVKPGGSLRLSCAASGFTFSDYYMSWIRQAPGKGLEWVSYISNSGITIYYADSVKGRFTISRDNAKNSLYLQMNSLRAGDTAVYYCAREEWYSSRWYRNFDYWGQGTLVTVSS VL: DIQMTQFSSSLSASVGDRVTITCRASQSISRYLNWYQQKPGKAPKLLIYAASSLQSGVPSRFNGSGSGTDFTLTISSLQPEDFATYYCQQSYSAPLTFGGGTKVEIK ... 19

// next item, Activity at 133 nM (% Inhibition), 24-hour Pre-incubation at 37° C., N = 2 requested
Asked: For 1G6 (antibody, V domains shown) VH: EVQLLESGGGLVQPGGSLRLSCAASGFTFSSYAMSWVRQAPGKGLEWVSAISGGGGNTYYADSVKGRFTISRDNSKNTLYLQMNSLRAEDTAVYYCSKVATDYWGQGTLVTVSS VL: QPVLTQSSSASASLGSSVKLTCTLSSGHSSYIIAWHQQQPGKAPRYLMKLEGSGSYNKGSGVPDRFSGSSSGADRYLTISNLQFEDEADYYCETWDSYTVVFGGGTKLTVL , what is its reported Activity at 133 nM (% Inhibition), 24-hour Pre-incubation at 37° C., N = 2?
Given back: 47
